- Procedure Summary: Corrosion Test 1 (dynamic wheel test; 3 wt% brine/Mentor 28; CO2 + H2S)
- Experimental Context: 10 ppm; 24 h, 70° C.; 30% solution
Counter-ions that a name gives are not always drawn.
Here, each record is paired with measured % Protection data.
Outcome Measure: % Protection

[[record]]
compound = "NCCc1ccccn1 [2-aminoethyl pyridine, reference compound]"
recorded_value = "45%"

[[record]]
compound = "c1ccc(CNCCc2ccncc2)cc1"
recorded_value = "56%"

[[record]]
compound = "CCCCCCNCCc1ccncc1"
recorded_value = "67%"

[[record]]
compound = "c1ccc(CNCCc2ccccn2)cc1"
recorded_value = "72%"

[[record]]
compound = "CCCCCCCCCCCCCCNCCc1ccccn1"
recorded_value = "43%"

[[record]]
compound = "CCCCCCCCCCCCCCCCCCNCCc1ccncc1"
recorded_value = "23%"

[[record]]
compound = "CCCCCCCCCCNCCc1ccccn1"
recorded_value = "63%"

[[record]]
compound = "NCCNCCNCCNCCc1ccccn1"
recorded_value = "72%"

[[record]]
compound = "CCCCCCCCCCCCNCCc1ccccn1 [Example 21, N-dodecyl-β-(2-pyridyl)-ethylamine]"
recorded_value = "51%"

[[record]]
compound = "CCCCCCCCCCCCN(CCc1ccncc1)CCc1ccncc1"
recorded_value = "70%"

[[record]]
compound = "CCCCCCNCCc1ccccn1"
recorded_value = "73%"

[[record]]
compound = "c1ccc(CN(CCc2ccccn2)CCc2ccccn2)cc1"
recorded_value = "25%"

[[record]]
compound = "CCCCCCCCCCCCCCCCNCCc1ccccn1"
recorded_value = "72%"

[[record]]
compound = "CCc1ccccn1 [2-ethylpyridine, reference compound]"
recorded_value = "7%"

[[record]]
compound = "CCCCCCCCCCCCCCCCCCNCCc1ccccn1"
recorded_value = "52%"

[[record]]
compound = "CCCCCCCCCCCCNCCc1ccccn1 [Example 4]"
recorded_value = "73%"

[[record]]
compound = "NCCNCCNCCc1ccccn1"
recorded_value = "72%"

[[record]]
compound = "CCCCCCCCCCNCCc1ccncc1"
recorded_value = "80%"

[[record]]
compound = "NCCNCCNCCc1ccncc1"
recorded_value = "50%"

[[record]]
compound = "CCCCCCCCCCCCNCCc1ccncc1"
recorded_value = "53%"

[[record]]
compound = "CCCCCCCCCCCCNCCc1ccccn1 [21 acetate salt]"
recorded_value = "74%"

[[record]]
compound = "CCCCCCN(CCc1ccncc1)CCc1ccncc1"
recorded_value = "64%"

[[record]]
compound = "CCc1ccccn1 [2-ethylpyridine.HCL, reference compound]"
recorded_value = "10%"

[[record]]
compound = "CCCCCCCCCCCCCCCCNCCc1ccncc1"
recorded_value = "69%"

[[record]]
compound = "CCc1ccncc1 [4-ethylpyridine.HCL, reference compound]"
recorded_value = "5%"

[[record]]
compound = "CCCCCCCCNCCc1ccncc1"
recorded_value = "49%"


* * *

- Procedure Summary: Emulsion Test (3 wt% brine / heptane)
- Type: physicochemical
- Experimental Context: hydrocarbon layer; 50 ml 3 wt% brine/50 ml heptane
Outcome Measure: Appearance after 30 mins, hydrocarbon

[[record]]
molecule = "CCCCCCCCCCCCCCNCCc1ccncc1 [Example 26]"
recorded_value = "clear"

[[record]]
molecule = "CCCCCCCCCCCCNCCc1ccncc1 [Example 25]"
recorded_value = "hazy"

[[record]]
molecule = "CCCCCCCCCCNCCc1ccccn1 [Example 3]"
recorded_value = "hazy"

[[record]]
molecule = "NCCNCCc1ccncc1 [Example 32]"
recorded_value = "clear"

[[record]]
molecule = "c1ccc(CNCCc2ccncc2)cc1 [Example 29]"
recorded_value = "clear"

[[record]]
molecule = "NCCNCCc1ccccn1 [Example 13]"
recorded_value = "clear"

[[record]]
molecule = "NCCCNCCc1ccccn1 [Example 14]"
recorded_value = "clear"

[[record]]
molecule = "CCCCCCCCNCCc1ccncc1 [Example 23]"
recorded_value = "clear"

